test: soluble on expression in E. coli; label from the status in PepcDB or PDB records
MEASURE: soluble on expression in E. coli

[[record]]
sequence_record = "MAILIELQDICVDFEQRRVLDNIRLTLTKGNITTLIGPNGAGKSTLVKVILGLQSLSSGKIIRQSGIRIGYVPQKLKLNDTLPLTVNRFLKLAGRFSTQELSEALRLVGGEHLQSSDMHKLSGGETQRVLLARALLQRPDLLVLDEPAQGVDVQGQIDLYDLIHTLRNRFGCAVLMVSHDLHLVMAKTDEVICLQHHVCCSGSPESIAKHPSYLAMFGHRSRDTLAFYQHHHEHHHHDLSGLPVKGKASVCSHHSHGHHKHD"
reported_measurement = "not soluble"

[[record]]
sequence_record = "MTEHLKSNTMVLPLKKGAQKMTTITLKVSEADKTFMKAMAKFEGVSLSELIRTKTLEALEDEYDARVADLAYQEYLEDLEKGVEPITWEEMMHDLGLKDE"
reported_measurement = "not soluble"

[[record]]
sequence_record = "MSHVQAVIFDAFGTITRIENARHPFRQLLKLGIAQGRRPKPDDASMLMRHPWGLAQAADHFGIDVTPAELARIQAELDAEVASIQPFADALACIEALQAHGLKVAVCSNLARPYGAAVKRIFPGLESYGFSYEIGTLKPDRRIYEAALTELAVDACKVWMIGDSQRCDRDGPIALGIKGHYLNRTGAGSPSDFRDLMAFKHSVFESRSP"
reported_measurement = "not soluble"

[[record]]
sequence_record = "PSSAVGSGSEGFIVRLPAALLFKEGGIEVENSDGFLFVKRMAEIVNRLPKDVHVEVRGHTDTLPLPAQAPQDKLELTAKRALSVSKLLVKEGIDPKRITTVGRGDQDPLTHARTPEAQESNRRVDIYLYPKE"
reported_measurement = "soluble"

[[record]]
sequence_record = "NDAIIILNGEKVLDLNKKGREAFGLGARELDNISIGSLLSEKDLPAVRDALKTTLENGSACFEMKFRKQNGEVIDVEVSSSFLSLEEGEIQCVARD"
reported_measurement = "not soluble"

[[record]]
sequence_record = "MSNFLDLQKQRRSIYALGKTVDLSKAELVALIQNAIKQAPSAFNSQTSRALVLFGQDSQDFWNKIAYSELEKVTPAEAFAGTKAKLESFAAGVGTILLFEDQAVVRNLEENFPLYAENFQPWSEQAHGIALYAIWLALAEQNIGMSVQHYNPLVDAQVAEKYDLPTNWKMRAQIPFGSIEAPAGEKEFMADQERFKVFGDLEHHHHHH"
reported_measurement = "soluble"

[[record]]
sequence_record = "TGRGVKYWFCYGTKCYYFIMNKTTWSGCKANCQHYSVPIVKIEDEDELKFLQRHVIPEGYWIGLSYDKKKKEWAWIDNGPSKFDMKIRKMNFKSRGCVFLSKARIEDTDCNIPYYCICGKKLDKFPD"
reported_measurement = "soluble"

[[record]]
sequence_record = "MGSDKIHHHHHHMKKTPKLSVQLWSVKDAINQDFNGTLKTLSNMGFDGVEFAGELGSYANDAKALKLFLDSIDLKASGAHVSFEQLDQDNFQKTVDFYHQLQVDTLIIGLDDRSWHPQGIEEVVKLLNQLDTKLDPYNIKTGFHNHEHEFDNFKGTTYWDYLAMNTKDSVVLQQDVGWTTYAGKDAVEYVYKYPNRSFTTHYRVCIPEGVKGKQPIIGRDTIDWLRLLKANINVGGTKWIVVEQDVYPNGMSSLAAVALSKNGLEQYIDKL"
reported_measurement = "not soluble"

